Test system: Fibroblasts
Assay: Cytotoxicity assay
Assay type: cell-based
Details: Fibroblast, 72 h, read-out: IC50 on cell viability
endpoint: pIC50
Just so you know, pIC50 here is -log10 of the concentration in molar units; reply with that number alone.

The value of pIC50 recorded for CN(C)CCNC(=O)COc1c2cccc1Cc1cccc(c1OCC(=O)NCCN(C)C)Cc1cccc(c1OCC(=O)NCCN(C)C)Cc1cccc(c1OCC(=O)NCCN(C)C)C2 when tested on Fibroblasts reads 4.46

* * *

Test system: MA148 ovarian carcinoma cells
Assay: Cytotoxicity assay
Format: cell-based
Conditions: Homo sapiens, Ovarian carcinoma cell, 72 h, read-out: IC50 on cell viability
endpoint: IC50 (nM)
Report the figure in nM without appending any unit label.

IC50 measured on CN(C)CCNC(=O)COc1c2cccc1Cc1cccc(c1OCC(=O)NCCN(C)C)Cc1cccc(c1OCC(=O)NCCN(C)C)Cc1cccc(c1OCC(=O)NCCN(C)C)C2 = 500
